meta.source: patent US9670227B2

# IC50 annotations
Target: Mcl-1 protein (UniProtKB primary accession number: Q07820) (Homo sapiens, UniProt Q07820)
Sequence (Q07820 whole entry): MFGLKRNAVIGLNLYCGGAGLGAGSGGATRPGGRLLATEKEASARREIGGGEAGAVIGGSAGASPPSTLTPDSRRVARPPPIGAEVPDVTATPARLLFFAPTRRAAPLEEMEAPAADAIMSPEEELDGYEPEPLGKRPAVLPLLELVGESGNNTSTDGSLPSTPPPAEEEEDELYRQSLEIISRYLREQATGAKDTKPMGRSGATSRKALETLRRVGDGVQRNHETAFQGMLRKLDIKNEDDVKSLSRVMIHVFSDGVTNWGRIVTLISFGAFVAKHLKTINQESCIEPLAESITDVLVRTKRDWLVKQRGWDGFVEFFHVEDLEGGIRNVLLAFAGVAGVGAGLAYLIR
Assay: Inhibition of Mcl-1 by fluorescence polarisation, Method 1
Type: binding
Conditions: fluorescence polarisation test; Method 2 values are underlined in the patent (underlining not visible here); read-out: IC50 (M) Mcl-1 FP
assay-metric: IC50 (M)

COc1nc(C)cc(COc2ccccc2CC(Oc2ncnc3sc(-c4ccc(F)o4)c(-c4ccc(OCCN5CCN(C)CC5)c(Cl)c4C)c23)C(=O)O)n1 (stereo not drawn) ... 5e-09
Cc1c(-c2c(-c3ccc(F)cc3)sc3ncnc(OC(Cc4ccccc4OCCF)C(=O)O)c23)ccc(OCCN2CCN(C)CC2)c1Cl (stereo not drawn) ... 2.4e-08
Cc1c(-c2c(-c3ccc(F)cc3)sc3ncnc(OC(Cc4ccccc4OCc4ccnc(-c5ccco5)n4)C(=O)O)c23)ccc(OCCN2CCN(C)CC2)c1Cl (stereo not drawn) ... 6.1e-09
COc1ccc(Cn2nccc2COc2ccccc2CC(Oc2ncnc3sc(-c4ccc(F)cc4)c(-c4ccc(OCCN5CCN(C)CC5)c(Cl)c4C)c23)C(=O)O)cc1 (stereo not drawn) ... 1.3e-08
Cc1c(-c2c(-c3ccco3)sc3ncnc(OC(Cc4ccccc4SCC(F)(F)F)C(=O)O)c23)ccc(OCCN2CCN(C)CC2)c1Cl (stereo not drawn) [Example 361] ... 7.1e-07
COCCOCCOc1ccccc1CC(Oc1ncnc2sc(-c3ccc(F)o3)c(-c3ccc(OCCN4CCN(C)CC4)c(Cl)c3C)c12)C(=O)O (stereo not drawn) ... 5.6e-09

----------
# IC50 annotations
Molecular target: Mcl-1 protein (UniProtKB primary accession number: Q07820) (Homo sapiens, UniProt Q07820)
Assay: Inhibition of Mcl-1 by fluorescence polarisation, Method 1
Assay type: binding
Conditions: fluorescence polarisation test; Method 2 values are underlined in the patent (underlining not visible here); read-out: IC50 (M) Mcl-1 FP
assay-metric: IC50 (M)

Cc1c(-c2c(-c3ccc(F)cc3)sc3ncnc(OC(Cc4ccccc4OCc4ccncn4)C(=O)O)c23)ccc(OCCN2CCN(C)CC2)c1Cl (stereo not drawn) ... 9.1e-09
Cc1c(-c2c(-c3ccc(F)o3)sc3ncnc(OC(Cc4ccccc4OCc4ccnc(OCC(F)(F)F)n4)C(=O)O)c23)ccc(OCCN2CCN(C)CC2)c1Cl (stereo not drawn) ... 6.3e-09
Cc1c(-c2c(-c3ccc(F)o3)sc3ncnc(OC(Cc4ccccc4OCc4cncnc4)C(=O)O)c23)ccc(OCCN2CCN(C)CC2)c1Cl (stereo not drawn) ... 7.5e-09
Cc1c(-c2c(-c3ccc(F)o3)sc3ncnc(OC(Cc4ccccc4OCc4cocn4)C(=O)O)c23)ccc(OCCN2CCN(C)CC2)c1Cl (stereo not drawn) ... 6.5e-09
Cc1c(-c2c(-c3ccc(F)o3)sc3ncnc(OC(Cc4ccccc4OCc4ccnc(N5CCOCC5)n4)C(=O)O)c23)ccc(OCCN2CCN(C)CC2)c1Cl (stereo not drawn) ... 3.9e-09
COc1ccccc1CC(Oc1ncnc2sc(-c3ccco3)c(-c3ccc(OCC4CCCN4C)c(Cl)c3C)c12)C(=O)O (stereo not drawn) [Example 298] ... 1.2e-08
Cc1c(-c2c(-c3ccco3)sc3ncnc(OC(Cc4ccccc4OCc4ccn(C)n4)C(=O)O)c23)ccc(OCCN2CCN(C)CC2)c1Cl (stereo not drawn) ... 9.1e-09
Cc1c(-c2c(-c3ccc(F)cc3)sc3ncnc(OC(Cc4ccccc4OCc4ccc(F)cn4)C(=O)O)c23)ccc(OCCN2CCN(C)CC2)c1Cl (stereo not drawn) ... 9.7e-09
Cc1c(-c2c(-c3ccco3)sc3ncnc(OC(Cc4ccccc4OCc4cccc(N5CCCC5)n4)C(=O)O)c23)ccc(OCCN2CCN(C)CC2)c1Cl (stereo not drawn) ... 1.5e-08
Cc1c(-c2c(-c3ccco3)sc3ncnc(OC(Cc4ccccc4NC(=O)OC(C)(C)C)C(=O)O)c23)ccc(OCCN2CCN(C)CC2)c1Cl (stereo not drawn) ... 9.5e-09
Cc1c(-c2c(-c3ccc(Cl)o3)sc3ncnc(OC(Cc4ccccc4OCc4ccncn4)C(=O)O)c23)ccc(OCCN2CCN(C)CC2)c1Cl (stereo not drawn) ... 8.7e-09
Cc1c(-c2c(-c3ccco3)sc3ncnc(OC(Cc4ccccc4OCc4cccs4)C(=O)O)c23)ccc(OCCN2CCN(C)CC2)c1Cl (stereo not drawn) ... 5.8e-09
CCCCCn1nccc1C(C)Oc1ccccc1CC(Oc1ncnc2sc(-c3ccc(F)cc3)c(-c3ccc(OCCN4CCN(C)CC4)c(Cl)c3C)c12)C(=O)O (single isomer, unassigned) [Example 6] ... 4.9e-09
COc1cc(-c2sc3ncnc(OC(Cc4ccccc4OCc4cnccn4)C(=O)O)c3c2-c2ccc(OCCN3CCN(C)CC3)c(Cl)c2C)ccc1F (stereo not drawn) ... 1e-08
Cc1c(-c2c(-c3ccco3)sc3ncnc(OC(Cc4ccccc4OCc4cccnc4)C(=O)O)c23)ccc(OCCN2CCN(C)CC2)c1Cl (stereo not drawn) ... 7.3e-09
CCc1nccc(COc2ccccc2CC(Oc2ncnc3sc(-c4ccc(F)cc4)c(-c4ccc(OCCN5CCN(C)CC5)c(Cl)c4C)c23)C(=O)O)n1 (stereo not drawn) ... 6e-09
COc1ccccc1CC(Oc1ncnc2sc(-c3ccco3)c(-c3ccc(OC4CCNC4)c(Cl)c3C)c12)C(=O)O (single isomer, unassigned) [Example 306] ... 1.4e-08
COc1ccccc1CC(Oc1ncnc2sc(-c3ccco3)c(-c3ccc(OCCC4CCN(C)CC4)c(Cl)c3C)c12)C(=O)O (stereo not drawn) ... 1.8e-08
Cc1ccccc1-c1nccc(COc2ccccc2CC(Oc2ncnc3sc(-c4ccc(F)cc4)c(-c4ccc(OCCN5CCN(C)CC5)c(Cl)c4C)c23)C(=O)O)n1 (stereo not drawn) ... 2.6e-09
Cc1c(-c2c(-c3ccco3)sc3ncnc(OC(Cc4ccccc4OCc4cscn4)C(=O)O)c23)ccc(OCCN2CCN(C)CC2)c1Cl (stereo not drawn) ... 7.9e-09
CCn1nccc1COc1ccccc1CC(Oc1ncnc2sc(-c3ccc(F)c(OC)c3)c(-c3ccc(OCCN4CCN(C)CC4)c(Cl)c3C)c12)C(=O)O (stereo not drawn) ... 3.8e-09
Cc1c(-c2c(-c3ccc(Cl)o3)sc3ncnc(OC(Cc4ccccc4OCc4ccccn4)C(=O)O)c23)ccc(OCCN2CCN(C)CC2)c1Cl (stereo not drawn) ... 8.6e-09
Cc1c(-c2c(-c3ccc(F)cc3)sc3ncnc(OC(Cc4ccccc4OCc4cnnn4-c4ccccc4)C(=O)O)c23)ccc(OCCN2CCN(C)CC2)c1Cl (stereo not drawn) ... 1.9e-09
COc1ccccc1CC(Oc1ncnc2sc(-c3ccco3)c(-c3ccc(OC4CCN(C)C4)c(Cl)c3C)c12)C(=O)O (stereo not drawn) ... 9.3e-09
